Target: T1, human SETD3 (residues 1-497) (human, UniProt Q86TU7 1-497)
T1 construct: The methods describe one recombinant human SETD3 with an N-terminal His6-tag without giving limits; Whether that protocol and tag apply to the 1-497 construct used for ITC and crystals is surmised; In ITC and in the crystals SETD3 was pre-incubated with SAH or sinefungin (SFG) at 1:10; also called SETD3_(1-497); histidine methyltransferase SETD3
T1 sequence (looked up): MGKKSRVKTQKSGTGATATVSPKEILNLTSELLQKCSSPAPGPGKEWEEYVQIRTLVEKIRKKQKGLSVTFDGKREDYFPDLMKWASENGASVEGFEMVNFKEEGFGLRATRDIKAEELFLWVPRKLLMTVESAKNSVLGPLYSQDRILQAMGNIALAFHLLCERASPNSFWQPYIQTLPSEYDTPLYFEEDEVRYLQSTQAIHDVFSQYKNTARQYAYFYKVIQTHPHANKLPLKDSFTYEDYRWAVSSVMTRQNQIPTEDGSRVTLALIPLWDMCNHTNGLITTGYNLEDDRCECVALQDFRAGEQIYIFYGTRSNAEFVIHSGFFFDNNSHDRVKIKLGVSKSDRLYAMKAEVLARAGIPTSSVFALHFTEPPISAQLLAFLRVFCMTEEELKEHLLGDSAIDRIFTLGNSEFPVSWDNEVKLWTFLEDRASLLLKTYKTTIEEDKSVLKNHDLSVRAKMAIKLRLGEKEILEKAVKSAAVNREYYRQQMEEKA
Assay: ITC; peptide (0.5-1 mM) titrated into SETD3 (0.05 mM) pre-incubated with sinefungin (SFG) (1:10); 25 °C; 20 mM Tris-HCl pH 8.0, 150 mM NaCl; one set of binding sites model
Details: both partners purified
Ends that are not written are not given here.
READOUT: pKd
One number for each entry, as −log10 of the molar value.

Q. For TLKYPIEHGIVTNWDD-NH2 (peptide, UniProt P60709 66-81, looked up, β-actin, human, 16-mer, residues 66-81; Made on Rink amide resin, so a C-terminal amide is surmised; also called wild type βA-His73; wild type β-actin peptide; source: synthetic peptide (microwave-assisted SPPS on Rink amide resin, RP-HPLC)) [β-actin peptide, residues 66-81, with His73 (βA-His73)] , what is its reported pKd?
A. 6.00
